These data points were gathered from patent US4424229A.

Give measured LD50 at 168 h for each item. Keep answers brief.
Experiment: in vivo
Details: mouse, po, read-out: Acute toxicity LD50

Query (molecule): COc1ccc(-c2nc(-c3cc(F)cc(F)c3)[nH]c2-c2ccc(OC)cc2)cc1 ; field requested: LD50 at 168 h
> 2000 mg/kg

Find the recorded LD50 at 168 h belonging to COc1ccc(-c2nc(-c3cccc(F)c3F)[nH]c2-c2ccc(OC)cc2)cc1 and report it.
3120 mg/kg

====

Answer each item with its documented Inhibition of PG-synthetase IC50.
Target: PG-synthetase
Assay: Prostaglandin-synthetase inhibition test (Vane)
Format: biochemical
Details: AA = arachidonic acid
Value expressed in μg/10 μg AA; do not type the unit.

# Inhibition of PG-synthetase IC50 lookup, item COc1ccc2cc([C@H](C)C(=O)O)ccc2c1 [Compound 14, Naproxen, reference compound]
0.49

If you can, please state the reported Inhibition of PG-synthetase IC50 value of COc1ccc(-c2nc(-c3cc(F)cc(F)c3)[nH]c2-c2ccc(OC)cc2)cc1 .
0.38

Which value of Inhibition of PG-synthetase IC50 has been reported for COc1ccc(-c2nc(-c3cc(F)ccc3F)[nH]c2-c2ccc(OC)cc2)cc1 in the records?
1.71

Return reported Inhibition of PG-synthetase IC50; argument: COc1ccc(-c2nc(-c3ccc(F)cc3)[nH]c2-c2ccc(OC)cc2)cc1
0.18

Param item = COc1ccc(-c2nc(-c3ccccc3F)[nH]c2-c2ccc(OC)cc2)cc1 ; retrieve measured Inhibition of PG-synthetase IC50.
0.23

Consider the compound COc1ccc(-c2nc(-c3cccc(F)c3)[nH]c2-c2ccc(OC)cc2)cc1 and give its measured Inhibition of PG-synthetase IC50.
0.21

Name the reported Inhibition of PG-synthetase IC50 value associated with the compound COc1ccc(-c2nc(-c3c(F)cccc3F)[nH]c2-c2ccc(OC)cc2)cc1
0.13

What value of Inhibition of PG-synthetase IC50 has been recorded for this entry: COc1ccc2c(c1)c(CC(=O)O)c(C)n2C(=O)c1ccc(Cl)cc1 [Compound 13, Indomethacin, reference compound]
0.65

What value of Inhibition of PG-synthetase IC50 has been recorded for this entry: CC(=O)Oc1ccccc1C(=O)O [Compound 15, Acetyl salicylic acid, reference compound]
7.61

Given the compound COc1ccc(-c2nc(-c3cccc(F)c3F)[nH]c2-c2ccc(OC)cc2)cc1 , what is its reported Inhibition of PG-synthetase IC50?
0.21

What value of measured Inhibition of PG-synthetase IC50 is listed for COc1ccc(-c2nc(-c3ccc(F)cc3F)[nH]c2-c2ccc(OC)cc2)cc1 ?
0.27

Give the measured Inhibition of PG-synthetase IC50 of COc1ccc(-c2nc(-c3ccc(F)c(F)c3)[nH]c2-c2ccc(OC)cc2)cc1 .
0.11

====

Provide the reported TD50 at 5 h of each item.
Assay: Ulcerogenic activity in rats
Assay type: in vivo, rats (Sprague-Dawley)
Conditions: rat, in vivo, po
Give your result in mg/kg as a bare value.

Would you kindly share the measured TD50 at 5 h for COc1ccc(-c2nc(-c3ccc(F)cc3F)[nH]c2-c2ccc(OC)cc2)cc1 ?
1580

Look up TD50 at 5 h for this molecule: COc1ccc(-c2nc(-c3ccc(F)c(F)c3)[nH]c2-c2ccc(OC)cc2)cc1
45
